Taken from the supplement of paper PMC9170038.

- Tested on: K4 kissing-loop RNA reporter;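 also: bound reporter read as fluorescence of individual clusters on recovered sequencing chips by microscopy, with normalized cluster intensities fitted with a binding model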
- ASSAY_TEXT: apparent KD of K4 kissing-loop reporter; higher = weaker reporter binding
- TEST_CONDITIONS: Eterna round: R107; input ligand: FMN 200 uM
Met means recorded apparent KD of K4 kissing-loop reporter is 0.2 µM or above; Not met means it is below 0.2 µM.

Worked cases, answers included:
>  <BIOPOLYMER_SEQUENCE>
GGAAAGCCAGUGAUGUUGGCAUAAACUGAAGGAGCGCGUGAAAACGCAGGUAGGUCGCAGAACCUUGCCAACUAUAUUAUUUACC [Ex Arginine A K4 21]

>  <DISCRETE_LABEL>
Not met

$$$$
>  <BIOPOLYMER_SEQUENCE>
AGAACUGUCUGAGAUACCAGCCAAGGAGUGAUGUUCCGGCUCGACGAAACGUCGAGCCAUGGCCCUUGGCAGCUCAGACAGUUCA [Omei KL Theo B SS A v2]

>  <DISCRETE_LABEL>
Met

$$$$
>  <BIOPOLYMER_SEQUENCE>
UAAUUUAUGUCUUUAAUAUAAUAAUCAGAUACCAGUGAUUUAUGACACCCUUGGCAGCUGUAUAGAGUGAUGUUCUUAUACAUAA [JR_Nu_ExcTheophyA_Sub020]

>  <DISCRETE_LABEL>
Met

$$$$
>  <BIOPOLYMER_SEQUENCE>
UCUGUUGUAUAUGAUACCAGCAGUGAGAGAUGAGAAGUAUAGUGAUGUUAUAUGAGUGAAUGCCCUUGGCAGCGUGUGCGUGUGG [SSTheophylB.aD]

>  <DISCRETE_LABEL>
Not met

$$$$
>  <BIOPOLYMER_SEQUENCE>
CCUGCGGCUUCCGGCGGGCCCGAUUUAUAAAAGGAUAUGUGCGUACACAGAAGGUUUAACGAGGGACCGAGAGUGAUGUUCUCCU [theeternabot_sameState_KL_FMN_A_33]

>  <DISCRETE_LABEL>
Met

$$$$

Query: Determine whether measured apparent KD of K4 kissing-loop reporter meets or exceeds 0.2 µM for AAUAAAAUCACGGCCGCCACUGAUACUAAUAUUAGCAGUGAUGUUGCUAUGUAUAAUUUAUUAAACAGGACCGGGUGAAUAUUUA [JR_ExcTryptoB_Sub015]
Response: Not met
